Data provenance is patent US10583206B2.

# procedure_summary: Test of hydrogen sulfide detection over time (^64CuS formation, radio-TLC)
# Format: physicochemical
# Set-up: unit not given here
# assay_context: 100 μM NaHS, 37° C.; 60 sec
The threshold is inclusive: Formation of copper sulfide (^64CuS) over time of exactly 80 counts as yes; values below receive no.

Query string: Form field: Formation of copper sulfide (^64CuS) over time at least 80? Entry: C1COCCNCCOCCN1.[64Cu+2]
Result string: no

Query string: Form field: Formation of copper sulfide (^64CuS) over time at least 80? Entry: C1C[N]2CC[N]3CC[N]4CC[N](C1)[64Cu]234 [Example 16, ^64Cu-labeled cyclam]
Result string: no

Query string: Form field: Formation of copper sulfide (^64CuS) over time at least 80? Entry: C1C[N]2CC[N]3CC[N]4CC[N]1[64Cu]243 [Example 1, ^64Cu-labeled cyclen]
Result string: no

Query string: Form field: Formation of copper sulfide (^64CuS) over time at least 80? Entry: [64Cu+2].c1ccc2c(CN3CCNCCNCCNCC3)c3ccccc3cc2c1
Result string: no

Query string: Form field: Formation of copper sulfide (^64CuS) over time at least 80? Entry: C1C[N]2CCC[N]3CCC[N](C1)[64Cu]23
Result string: yes

Query string: Form field: Formation of copper sulfide (^64CuS) over time at least 80? Entry: C1C[N]2CC[N]3CC[N]1[64Cu]23 [Example 20, ^64Cu-labeled TACN]
Result string: no

* * *

# procedure_summary: Test of hydrogen sulfide detection sensitivity (% decomplexation with NaHS, radio-TLC)
# Type: physicochemical
# assay_context: NaHS 50 μM; 37° C. for 15 minutes
measured_endpoint: % decomplexation (%)
Provide only the numeric value, understood in %.

Query string: Entry under review: C1C[N]2CCC[N]3CCC[N](C1)[64Cu]23 . Reported % decomplexation?
Result string: 63

Query string: Entry under review: C1C[N]2CC[N]3CC[N]4CC[N](C1)[64Cu]234 [Example 16, ^64Cu-labeled cyclam] . Reported % decomplexation?
Result string: 1.3

Query string: Entry under review: C1C[N]2CC[N]3CC[N]4CC[N]1[64Cu]243 [Example 1, ^64Cu-labeled cyclen] . Reported % decomplexation?
Result string: 100

Query string: Entry under review: C1C[SH]2CC[SH]3CC[SH]4CC[N]1[64Cu]243 (stereo not shown) . Reported % decomplexation?
Result string: 67.7

Query string: Entry under review: [64Cu+2].c1ccc2c(CN3CCNCCNCCNCC3)c3ccccc3cc2c1 . Reported % decomplexation?
Result string: 56

Query string: Entry under review: C1C[N]2CC[N]3CC[N]1[64Cu]23 [Example 20, ^64Cu-labeled TACN] . Reported % decomplexation?
Result string: 24.6

Query string: Entry under review: C1COCCNCCOCCN1.[64Cu+2] . Reported % decomplexation?
Result string: 100

* * *

Would you mind telling me the reported Decomplexation [%] of each entry?
# procedure_summary: Hydrogen sulfide selectivity test: decomplexation by NaN3
# Assay type: physicochemical
# assay_context: NaN3 (100 μM); 37° C. for 15 minutes
Answers without a unit are incomplete; give the number and then its unit.

Query string: Entry under review: C1C[SH]2CC[SH]3CC[SH]4CC[N]1[64Cu]243 (stereo not drawn) . Reported Decomplexation [%]?
Result string: 0.8%

Query string: Entry under review: C1C[N]2CC[N]3CC[N]4CC[N](C1)[64Cu]234 [Example 16, ^64Cu-labeled cyclam] . Reported Decomplexation [%]?
Result string: 0.7 ± 0.1%

Query string: Entry under review: C1C[N]2CC[N]3CC[N]4CC[N]1[64Cu]243 [Example 1, ^64Cu-labeled cyclen] . Reported Decomplexation [%]?
Result string: 0.3 ± 0.2%

Query string: Entry under review: C1COCCNCCOCCN1.[64Cu+2] . Reported Decomplexation [%]?
Result string: 0.6%

Query string: Entry under review: C1C[N]2CCC[N]3CCC[N](C1)[64Cu]23 . Reported Decomplexation [%]?
Result string: 0.5%

Query string: Entry under review: C1C[N]2CC[N]3CC[N]1[64Cu]23 [Example 20, ^64Cu-labeled TACN] . Reported Decomplexation [%]?
Result string: 0.4 ± 0.0%

* * *

# procedure_summary: Hydrogen sulfide selectivity test: decomplexation by L-AsA
# Format: physicochemical
# assay_context: L-ascorbic acid; 100 μM or (L-AsA, 10 mM); 37° C. for 15 minutes
The threshold is inclusive: Decomplexation [%] of exactly 4% counts as label 1; values below receive label 0.

Query string: Form field: Decomplexation [%] at least 4%? Entry: C1C[SH]2CC[SH]3CC[SH]4CC[N]1[64Cu]243 (stereo not drawn)
Result string: label 0

Query string: Form field: Decomplexation [%] at least 4%? Entry: C1C[N]2CC[N]3CC[N]4CC[N]1[64Cu]243 [Example 1, ^64Cu-labeled cyclen]
Result string: label 0

Query string: Form field: Decomplexation [%] at least 4%? Entry: C1COCCNCCOCCN1.[64Cu+2]
Result string: label 1

Query string: Form field: Decomplexation [%] at least 4%? Entry: C1C[N]2CC[N]3CC[N]1[64Cu]23 [Example 20, ^64Cu-labeled TACN]
Result string: label 0

Query string: Form field: Decomplexation [%] at least 4%? Entry: C1C[N]2CC[N]3CC[N]4CC[N](C1)[64Cu]234 [Example 16, ^64Cu-labeled cyclam]
Result string: label 0

* * *

# procedure_summary: Hydrogen sulfide selectivity test: decomplexation by GSH
# Assay type: physicochemical
# assay_context: 100 μM or GSH (10 mM), 37° C. for 15 minutes
measured_endpoint: Decomplexation [%] (%)
Provide only the numeric value, understood in %.

Query string: Entry under review: C1C[N]2CC[N]3CC[N]4CC[N]1[64Cu]243 [Example 1, ^64Cu-labeled cyclen] . Reported Decomplexation [%]?
Result string: 0.7

Query string: Entry under review: C1C[N]2CCC[N]3CCC[N](C1)[64Cu]23 [Example 21] . Reported Decomplexation [%]?
Result string: 33

Query string: Entry under review: C1C[N]2CC[N]3CC[N]1[64Cu]23 [Example 20, ^64Cu-labeled TACN] . Reported Decomplexation [%]?
Result string: 2.6

Query string: Entry under review: C1COCCNCCOCCN1.[64Cu+2] [Example 3] . Reported Decomplexation [%]?
Result string: 48

Query string: Entry under review: C1C[N]2CC[N]3CC[N]4CC[N](C1)[64Cu]234 [Example 16, ^64Cu-labeled cyclam] . Reported Decomplexation [%]?
Result string: 0.8

Query string: Entry under review: C1C[SH]2CC[SH]3CC[SH]4CC[N]1[64Cu]243 (stereo not drawn) [Example 23] . Reported Decomplexation [%]?
Result string: 0.7

* * *

Would you mind telling me the reported Decomplexation [%] of each entry?
# procedure_summary: Hydrogen sulfide selectivity test: decomplexation by ATB 337
# Assay type: physicochemical
# assay_context: ATB 337 (100 μM); 37° C. for 15 minutes
Provide only the numeric value, understood in %.

Query string: Entry under review: C1C[N]2CC[N]3CC[N]4CC[N](C1)[64Cu]234 [Example 16, ^64Cu-labeled cyclam] . Reported Decomplexation [%]?
Result string: 0.6

Query string: Entry under review: C1C[N]2CC[N]3CC[N]4CC[N]1[64Cu]243 [Example 1, ^64Cu-labeled cyclen] . Reported Decomplexation [%]?
Result string: 0.7

Query string: Entry under review: C1C[N]2CC[N]3CC[N]1[64Cu]23 [Example 20, ^64Cu-labeled TACN] . Reported Decomplexation [%]?
Result string: 0.7

Query string: Entry under review: C1COCCNCCOCCN1.[64Cu+2] [Example 3] . Reported Decomplexation [%]?
Result string: 3

Query string: Entry under review: C1C[N]2CCC[N]3CCC[N](C1)[64Cu]23 [Example 21] . Reported Decomplexation [%]?
Result string: 6

Query string: Entry under review: C1C[SH]2CC[SH]3CC[SH]4CC[N]1[64Cu]243 (stereo not drawn) [Example 23] . Reported Decomplexation [%]?
Result string: 0.6

* * *

# procedure_summary: Hydrogen sulfide selectivity test: decomplexation by ME
# Type: physicochemical
# assay_context: 2-mercaptoethanol; 100 μM or (2-ME, 10 mM); 37° C. for 15 minutes
measured_endpoint: Decomplexation [%] (%)
Provide only the numeric value, understood in %.

Query string: Entry under review: C1C[SH]2CC[SH]3CC[SH]4CC[N]1[64Cu]243 (stereo not drawn) . Reported Decomplexation [%]?
Result string: 0.5

Query string: Entry under review: C1C[N]2CCC[N]3CCC[N](C1)[64Cu]23 . Reported Decomplexation [%]?
Result string: 2

Query string: Entry under review: C1C[N]2CC[N]3CC[N]4CC[N]1[64Cu]243 [Example 1, ^64Cu-labeled cyclen] . Reported Decomplexation [%]?
Result string: 0.5

Query string: Entry under review: C1C[N]2CC[N]3CC[N]4CC[N](C1)[64Cu]234 [Example 16, ^64Cu-labeled cyclam] . Reported Decomplexation [%]?
Result string: 0.5

Query string: Entry under review: C1C[N]2CC[N]3CC[N]1[64Cu]23 [Example 20, ^64Cu-labeled TACN] . Reported Decomplexation [%]?
Result string: 0.4

Query string: Entry under review: C1COCCNCCOCCN1.[64Cu+2] . Reported Decomplexation [%]?
Result string: 16
